This listing pairs molecules with measured GI50.
Target: Ba/F3 EGFR Del19/T790M mutants (Homo sapiens, UniProt P00533, T790M, cells depend on it, form not given)
Sequence (P00533 with tags, fused parts or gaps DEL746-750/T790M, form open): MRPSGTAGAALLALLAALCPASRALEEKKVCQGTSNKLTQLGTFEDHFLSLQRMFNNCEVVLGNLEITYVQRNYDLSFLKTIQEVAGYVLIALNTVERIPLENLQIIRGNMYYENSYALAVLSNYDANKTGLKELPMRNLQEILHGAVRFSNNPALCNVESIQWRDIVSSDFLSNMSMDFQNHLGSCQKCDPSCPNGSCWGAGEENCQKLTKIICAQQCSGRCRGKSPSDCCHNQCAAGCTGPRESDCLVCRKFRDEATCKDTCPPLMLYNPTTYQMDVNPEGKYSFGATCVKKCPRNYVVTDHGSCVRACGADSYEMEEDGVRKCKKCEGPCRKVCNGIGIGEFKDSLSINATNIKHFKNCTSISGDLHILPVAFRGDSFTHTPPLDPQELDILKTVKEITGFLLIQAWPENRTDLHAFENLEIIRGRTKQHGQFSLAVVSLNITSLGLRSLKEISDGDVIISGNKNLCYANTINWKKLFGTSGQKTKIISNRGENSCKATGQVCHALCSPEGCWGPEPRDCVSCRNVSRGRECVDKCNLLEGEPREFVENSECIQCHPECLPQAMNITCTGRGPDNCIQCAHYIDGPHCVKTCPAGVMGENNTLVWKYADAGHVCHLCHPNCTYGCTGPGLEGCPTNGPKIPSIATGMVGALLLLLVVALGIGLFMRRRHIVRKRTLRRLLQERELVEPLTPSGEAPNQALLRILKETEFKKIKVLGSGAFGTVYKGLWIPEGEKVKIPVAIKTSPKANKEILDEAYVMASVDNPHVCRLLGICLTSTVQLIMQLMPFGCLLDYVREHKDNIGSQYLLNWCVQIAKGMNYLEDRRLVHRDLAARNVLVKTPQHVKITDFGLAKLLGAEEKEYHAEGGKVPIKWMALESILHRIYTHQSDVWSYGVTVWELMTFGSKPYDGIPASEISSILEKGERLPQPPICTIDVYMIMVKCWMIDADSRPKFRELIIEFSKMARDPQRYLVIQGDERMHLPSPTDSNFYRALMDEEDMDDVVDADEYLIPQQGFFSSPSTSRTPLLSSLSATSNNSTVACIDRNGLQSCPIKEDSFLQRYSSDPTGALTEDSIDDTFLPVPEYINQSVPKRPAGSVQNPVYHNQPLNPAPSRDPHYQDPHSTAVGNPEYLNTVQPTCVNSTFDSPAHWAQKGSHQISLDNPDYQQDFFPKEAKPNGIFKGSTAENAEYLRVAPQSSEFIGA
Experiment: CellTiter-Glo cell viability, Ba/F3 EGFR Del19/T790M cells
Type: cell-based, murine
Conditions: 72 hours, read-out: Ba/F3 EGFR mutant cell (IC50, nM) D/T
Provide the reading as a plain figure in nM.

# count of solved cases: 5
COc1cc(N2CCN([C@@H]3CCN(C)C[C@@H]3F)CC2)ccc1Nc1ncc(Cl)c(Nc2ccc3nccnc3c2NS(C)(=O)=O)n1 : 73
CCc1cc(Nc2ncc(Cl)c(Nc3cccc(OC)c3NS(C)(=O)=O)n2)c(OC)cc1N1CCC(N2CCOCC2)CC1 : 21
COc1cc(C2CCNCC2)ccc1Nc1ncc(Cl)c(Nc2ccc3nccnc3c2NS(C)(=O)=O)n1 : 1310
COc1cc(N2CCNCC2)ccc1Nc1ncc(Cl)c(Nc2ccc3nccnc3c2NS(C)(=O)=O)n1 : 402
COc1cc(N2CCC(N3CCN(C)CC3)CC2)ccc1Nc1ncc(Cl)c(Nc2ccc3c(c2NS(C)(=O)=O)OCCO3)n1 : 152

Input: Return reported GI50; argument: COc1cc(N2CCC(N(C)C)CC2)c(C)cc1Nc1ncc(Br)c(Nc2cccc(OC)c2NS(C)(=O)=O)n1
Output: 17
